# Mouse Hypercal annotations
- PROCEDURE_TEXT: Mouse hypercalcemia assay
- CONDITION_DETAILS: oral gavage for 6 days, serum ionized calcium 6 hours after last dosing
RECORDED_ENDPOINT: Mouse Hypercal

• Cc1cc(C2(c3ccc(OCC(=O)C(C)(C)C)c(C)c3)CCCCC2)ccc1OCC(=O)C(C)(C)C [CC, reference compound] = >30000 µg/kg/day
• CCC(CC)(c1ccc(OS(=O)(=O)C(F)(F)F)c(C)c1)c1ccc(OCC(=O)C(C)(C)C)c(Cl)c1 = <1000 µg/kg/day
• CCC(CC)(c1ccc(OCC(=O)C(C)(C)C)c(C)c1)c1ccc(N(C)S(C)(=O)=O)c(C)c1 = 1500 µg/kg/day
• CCC(CC)(c1ccc(OCC(=O)C(C)(C)C)c(C)c1)c1ccc(OS(=O)(=O)C(F)(F)F)c(C)c1 = >500 µg/kg/day

Data provenance is patent US7750184B2.
